Test system: THP-1 cells
Assay Name: IL-6 levels in LPS-stimulated THP-1 cells, 6 h (Example 1)
Assay type: cell-based, human
Assay Conditions: 100 μM peptide; THP-1; 1 μg/μl LPS for 6 h; + above, − below LPS-only control (100%)
Bridge positions count the residues as written; N and C are the ends. Ends that are not written are not given here. I, II: the chains in the order shown.
Readout Name: % IL-6 secretion level compared to LPS-stimulated control

Enter reported % IL-6 secretion level compared to LPS-stimulated control observed with THP-1 cells for LQNKRGLGLSILLNEECGPGPGP (disulfide I:17-II:17 (inferred)) [SG#8]
+20.86%

Record LQNRRGLGLSILLNEELQNRRGL (Mutated sequence) [SG#14] : what is its % IL-6 secretion level compared to LPS-stimulated control with THP-1 cells?
+15.21%

Under THP-1 cells: % IL-6 secretion level compared to LPS-stimulated control value of LQNRRGLGLSILLNEE (Mutated sequence) [SG#13] ?
+36.98%

Given the entry LQNRRGLGLSILLNC (disulfide I:15-II:15 (inferred)) [SG#4] , what % IL-6 secretion level compared to LPS-stimulated control was observed with THP-1 cells?
+13.27%

* * *

Please respond with reported % IL-6 secretion level compared to LPS-stimulated control for every item in the list.
System: THP-1 cells
Assay Name: IL-6 levels in LPS-stimulated THP-1 cells, 6 h (Example 1)
Format: cell-based, human
Assay Conditions: 60 μM peptide; THP-1; 1 μg/μl LPS for 6 h; + above, − below LPS-only control (100%)
Bridge positions count the residues as written; N and C are the ends. Ends that are not written are not given here. I, II: the chains in the order shown.

% IL-6 secretion level compared to LPS-stimulated control of LQNKRGLGLSILLNEECGPGPGP (disulfide I:17-II:17 (inferred)) [SG#8] on THP-1 cells?
+7.655%

So what % IL-6 secretion level compared to LPS-stimulated control did LQNRRGLGLSILLNEE (Mutated sequence) [SG#13] get with THP-1 cells?
+8.616%

Fill in the recorded % IL-6 secretion level compared to LPS-stimulated control for this sequence, with THP-1 cells as test system: LQNRRGLGLSILLNEELQNRRGL (Mutated sequence) [SG#14]
+28.52%

Param readout= % IL-6 secretion level compared to LPS-stimulated control; system= THP-1 cells; entry= LQNRRGLGLSILLNC (disulfide I:15-II:15 (inferred)) [SG#4] ; returns value.
+36.39%

* * *

Test system: THP-1 cells
Assay Name: IL-6 levels in LPS-stimulated THP-1 cells, 6 h (Example 1)
Type: cell-based, human
Assay Conditions: 15 μM peptide; THP-1; 1 μg/μl LPS for 6 h; + above, − below LPS-only control (100%)
Bridge positions count the residues as written; N and C are the ends. Ends that are not written are not given here. I, II: the chains in the order shown.
Readout Name: % IL-6 secretion level compared to LPS-stimulated control

Which % IL-6 secretion level compared to LPS-stimulated control is listed for LQNKRGLGLSILLNEECGPGPGP (disulfide I:17-II:17 (inferred)) [SG#8] ?
+14.54%

Which measured % IL-6 secretion level compared to LPS-stimulated control value corresponds to LQNRRGLGLSILLNEE (Mutated sequence) [SG#13] ?
+6.907%

Request the reported % IL-6 secretion level compared to LPS-stimulated control associated with LQNRRGLGLSILLNEELQNRRGL (Mutated sequence) [SG#14]
−0.4476%

Which % IL-6 secretion level compared to LPS-stimulated control value is on record for LQNRRGLGLSILLNC (disulfide I:15-II:15 (inferred)) [SG#4] ?
+20.76%

Data provenance is patent US11072638B2.
